- Target or system: HCV NS3/4A protease complex, BMS strain (UniProt P27958, species not given/STRAIN_BMS)
- Construct: DNA encoding the recombinant HCV NS3/4A protease complex (amino acids 1027 to 1711) for these strains [H77 and J4L6S]; fused on or other part: For the H77 and J4L6S constructs, a three-lysine solubilising tail at the NS4A C-terminus and a Ni-NTA-purifiable tag from pET21b
- Sequence (P27958 1027-1657, stated change not applied, one chain of several): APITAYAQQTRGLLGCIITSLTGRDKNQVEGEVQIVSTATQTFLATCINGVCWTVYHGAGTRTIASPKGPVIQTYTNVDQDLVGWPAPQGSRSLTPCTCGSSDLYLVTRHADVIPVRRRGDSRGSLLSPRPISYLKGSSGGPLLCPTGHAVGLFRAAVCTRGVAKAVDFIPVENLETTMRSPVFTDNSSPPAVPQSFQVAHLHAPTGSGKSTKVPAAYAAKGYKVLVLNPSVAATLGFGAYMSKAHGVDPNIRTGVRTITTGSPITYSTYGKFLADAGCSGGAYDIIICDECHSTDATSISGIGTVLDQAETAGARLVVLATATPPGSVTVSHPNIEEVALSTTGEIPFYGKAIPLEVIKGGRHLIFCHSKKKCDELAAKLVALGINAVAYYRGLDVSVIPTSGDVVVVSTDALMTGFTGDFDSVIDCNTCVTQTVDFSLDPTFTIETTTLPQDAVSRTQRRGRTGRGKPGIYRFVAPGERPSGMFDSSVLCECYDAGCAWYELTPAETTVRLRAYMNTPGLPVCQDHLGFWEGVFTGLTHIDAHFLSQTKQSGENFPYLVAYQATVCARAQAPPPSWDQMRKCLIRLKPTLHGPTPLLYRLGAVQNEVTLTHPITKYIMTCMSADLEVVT
- Method: FRET peptide assay to monitor HCV NS3/4A proteolytic activity (BMS strain)
- Type: biochemical, Hepatitis C virus (genotype 1a)
- Study conditions: NS3/4A BMS strain, enzyme assay; read-out: IC 50 Range
pIC50: −log10 of the molar value.
Assay readout: pIC50

Compound	Assay readout	Result
C=CC1CC1(NC(=O)[C@@H]1C[C@@H](NC(=O)c2ccc3cnccc3n2)CN1C(=O)[C@@H](NC(=O)CC1CC1)C(C)(C)C)C(=O)NS(=O)(=O)C1CC1 (stereo partly shown) [Compound 41]	pIC50	> 6.82
C=CC1CC1(NC(=O)[C@@H]1C[C@@H](NCc2ccnc3ccccc23)CN1C(=O)[C@@H](NC(=O)OC(C)(C)C)C(C)(C)C)C(=O)NS(=O)(=O)C1CC1 (stereo partly shown) [Compound 47]	pIC50	> 6.82
C=CC1CC1(NC(=O)[C@@H]1C[C@@H](NS(=O)(=O)c2cccc3ccccc23)CN1C(=O)[C@@H](NC(=O)OC(C)(C)C)C(C)(C)C)C(=O)NS(=O)(=O)C1CC1 (stereo partly shown) [Compound 48]	pIC50	4.82 to 6.82
C=CC1CC1(NC(=O)[C@@H]1C[C@@H](NC(=O)c2cc(Cl)nc3ccccc23)CN1C(=O)[C@@H](NC(=O)CC1CC1)C(C)(C)C)C(=O)NS(=O)(=O)C1CC1 (stereo partly shown) [Compound 13]	pIC50	4.82 to 6.82
C=CC1CC1(NC(=O)[C@@H]1C[C@@H](NC(=O)c2cc3ccccc3cn2)CN1C(=O)[C@@H](NC(=O)CC1CC1)C(C)(C)C)C(=O)NS(=O)(=O)C1CC1 (stereo partly shown) [Compound 28]	pIC50	> 6.82
C=CC1CC1(NC(=O)[C@@H]1C[C@@H](NC(=O)c2c(OCC)ccc3ccccc23)CN1C(=O)[C@@H](NC(=O)CC1CC1)C(C)(C)C)C(=O)NS(=O)(=O)C1CC1 (stereo partly shown) [Compound 37]	pIC50	4.82 to 6.82
C=CC1CC1(NC(=O)[C@@H]1C[C@@H](NC(=O)c2cc3ccccc3s2)CN1C(=O)[C@@H](NC(=O)CC1CC1)C(C)(C)C)C(=O)NS(=O)(=O)C1CC1 (stereo partly shown) [Compound 32]	pIC50	> 6.82
C=CC1CC1(NC(=O)[C@@H]1C[C@@H](NC(=O)c2cnc3c(c(C)nn3C)c2Cl)CN1C(=O)[C@@H](NC(=O)CC1CC1)C(C)(C)C)C(=O)NS(=O)(=O)C1CC1 (stereo partly shown) [Compound 22]	pIC50	> 6.82
C=CC1CC1(NC(=O)[C@@H]1C[C@@H](NC(=O)c2sc3ccccc3c2Cl)CN1C(=O)[C@@H](NC(=O)CC1CC1)C(C)(C)C)C(=O)NS(=O)(=O)C1CC1 (single isomer, unassigned) [Compound 4]	pIC50	> 6.82
C=CC1CC1(NC(=O)[C@@H]1C[C@@H](NC(=O)c2sc3ccccc3c2Cl)CN1C(=O)[C@@H](NC(=O)CC1CC1)C(C)(C)C)C(=O)O (single isomer, unassigned) [Compound 1]	pIC50	4.82 to 6.82
